Assay: Viability qHTS for spleen associated tyrosine kinase inhibitor (SYKi) naive MV4-11 cells (AID 1963823); further: nearly all actives have a fitted effect of over 40% in size
Details: MV4-11 AML viability, CellTiter-Glo luminescence, 72 h; series mostly up to 45 µM
Results filed as inconclusive are left out. Calls of active or inactive are those of the source. The call rests on the fitted dose curve; in most records, active means well fitted cell-killing curve with a large enough effect; inconclusive means small, poorly fitted or top-dose-only effect, or effect the other way; inactive means no such curve, though single readings can be large or run the other way.
Labels: class 1 (active), class 0 (inactive)

COMPOUND	ASSIGNED_LABEL
COc1ccc(CCNCc2ccc(OC)c3ccccc23)cc1	class 1
N#CC(OC1OC(COC2OC(CO)C(O)C(O)C2O)C(O)C(O)C1O)c1ccccc1 (stereo unspecified)	class 0
COc1ccc2c(c1OC)C(=O)O[C@H]2[C@@H]1c2cc3c(cc2CCN1C)OCO3	class 0
CC(=O)OC[C@H]1O[C@@H]([S-])[C@H](OC(C)=O)[C@@H](OC(C)=O)[C@@H]1OC(C)=O.CC[PH+](CC)CC.[Au]	class 1
CC1=C2[C@H]3OC(=O)[C@@H](C)[C@@H]3CC[C@@]2(C)C=CC1=O	class 0
OC(O)C(Cl)(Cl)Cl	class 0
CC(=O)OC[C@]12C[C@H](OC(=O)CC(C)C)C(C)=C[C@H]1O[C@@H]1[C@H](O)C[C@@]2(C)[C@]12CO2	class 1
C[C@](O)(COc1ccc(C#N)cc1)C(=O)Nc1ccc(C#N)c(C(F)(F)F)c1	class 1
CC(=O)OC[C@]12[C@H](OC(C)=O)C(=O)[C@@H]3[C@@H](O)[C@@]14O[C@@]3(C)COC(=O)c1cccnc1[C@@H](C)[C@H](C)C(=O)O[C@@H]([C@H](OC(C)=O)[C@@H]2OC(C)=O)[C@]4(C)O	class 1
CCN1CCCC1CNC(=O)C(O)(c1ccccc1)c1ccccc1 (stereo unspecified)	class 0
CCCCCCCCCCCC[N+](C)(C)CCOc1ccccc1	class 1
O=C1OC(c2ccc(O)c(S(=O)(=O)O)c2)(c2ccc(O)c(S(=O)(=O)O)c2)c2c(Br)c(Br)c(Br)c(Br)c21	class 0
CN1CCN(c2ccc([N+](=O)[O-])c3no[n+]([O-])c23)CC1	class 1
C/C(=C\c1csc(C)n1)[C@@H]1C[C@@H]2O[C@@H]2CCC[C@H](C)[C@H](O)[C@@H](C)C(=O)C(C)(C)[C@@H](O)CC(=O)O1	class 1
CCC(C(N)=O)N1CCCC1=O (stereo unspecified)	class 0
O=C(NCCN1CCC2(CC1)C(=O)NCN2c1cccc(F)c1)c1ccc2ccccc2c1	class 1
NCCc1cc(O)c(O)cc1O	class 0
CC(C)(C)OC(=O)c1ncn2c1[C@@H]1CCCN1C(=O)c1c(Br)cccc1-2	class 0
CC1Oc2cc3c(-c4c(O)cc(O)c5c(O)c6c(cc45)OC(C)C(C)C6=O)c(O)cc(O)c3c(O)c2C(=O)C1C (stereo unspecified)	class 1
CCN[C@H](C)Cc1cccc(C(F)(F)F)c1	class 0
O=C1CN=C(c2ccccc2Cl)c2cc(Br)ccc2N1	class 0
O=C(CCl)c1ccc(Cl)cc1Cl	class 0
CN1[C@H]2CC(O)C[C@H]1[C@H]1O[C@H]12 (stereo partly specified)	class 0
C[N+](C)(C)CCOC(=O)C(O)(c1ccccc1)c1ccccc1	class 0
CN1CCC(O)(c2ccc(F)cc2)C(C(=O)c2ccc(F)cc2)C1 (stereo unspecified)	class 0
Cc1cccc(C)c1NC(=O)CN1CCCC1=O	class 0
